Collected protein stability index values appear next to each entry.
B1: DFFB (parent)
chain: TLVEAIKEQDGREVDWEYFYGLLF

variants of: B1; assay: protein stability index of a GFP-peptide fusion (GPS, HEK-293T) (PSI 1-6); higher = more stable; settings: c terminus: a fixed tail appended;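 also: lentivirally expressed fusions sorted by FACS into six bins by GFP to DsRed ratio, PSI derived from sequencing read proportions per bin multiplied by bin number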

{"columns": ["variantDescription", "protein stability index"],
 "data": [
  ["F24N", 1.95],
  ["D10H", 1.99],
  ["V14M", 1.98],
  ["L23K", 2.03],
  ["K7C", 1.98],
  ["Y20H", 2.03]
]}
